study.target: Siglec-2 (CD22) (Homo sapiens)
Sequence (P20273 20-847): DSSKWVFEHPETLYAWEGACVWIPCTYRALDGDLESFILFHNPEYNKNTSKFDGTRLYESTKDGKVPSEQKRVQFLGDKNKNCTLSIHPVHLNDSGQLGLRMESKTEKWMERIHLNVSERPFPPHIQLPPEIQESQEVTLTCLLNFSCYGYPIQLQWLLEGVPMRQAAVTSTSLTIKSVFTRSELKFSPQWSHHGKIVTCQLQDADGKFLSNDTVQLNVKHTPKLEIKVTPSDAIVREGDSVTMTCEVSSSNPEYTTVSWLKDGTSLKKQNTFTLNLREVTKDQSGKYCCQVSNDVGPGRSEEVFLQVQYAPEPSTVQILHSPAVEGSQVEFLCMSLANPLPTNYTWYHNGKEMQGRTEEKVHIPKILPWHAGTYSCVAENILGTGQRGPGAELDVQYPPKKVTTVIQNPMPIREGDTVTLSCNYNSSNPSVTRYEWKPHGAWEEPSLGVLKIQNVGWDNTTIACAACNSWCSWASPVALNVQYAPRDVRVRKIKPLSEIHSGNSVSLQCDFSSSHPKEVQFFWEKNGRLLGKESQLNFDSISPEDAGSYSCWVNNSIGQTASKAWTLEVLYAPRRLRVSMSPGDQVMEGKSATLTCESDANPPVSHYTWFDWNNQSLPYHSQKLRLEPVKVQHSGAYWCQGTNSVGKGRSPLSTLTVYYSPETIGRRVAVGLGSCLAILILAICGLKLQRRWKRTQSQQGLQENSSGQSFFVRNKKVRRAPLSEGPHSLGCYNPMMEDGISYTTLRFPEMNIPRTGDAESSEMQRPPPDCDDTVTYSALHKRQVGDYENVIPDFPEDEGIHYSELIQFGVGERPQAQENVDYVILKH
assay.notes: new affinity assay: displacement of biotinylated compound 155 from sialidase-treated Daudi cells, FACS with streptavidin-PE
Format: binding
Set-up: endogenous in cells; host or cells: Daudi (human B-cell lymphoma line)
recorded.conditions: Table II; rIP values set relative to compound 38; Daudi cells, displacement of compound 155
quantity: rIP
// no unit string in output, number only

CC(=O)N[C@H]1[C@H]([C@H](O)[C@H](O)CNC(=O)Cc2ccc(-c3ccccc3)cc2)O[C@@](OCCCSCCNC(=O)c2ccc(C(=O)NCCSCCCO[C@]3(C(=O)[O-])C[C@H](O)[C@@H](NC(C)=O)[C@H]([C@H](O)[C@H](O)CNC(=O)Cc4ccc(-c5ccccc5)cc4)O3)cc2)(C(=O)[O-])C[C@@H]1O.[Na+].[Na+] [Compound 79] has a reported rIP of 181

New cases:
CC(=O)N[C@H]1[C@H]([C@H](O)[C@H](O)CNC(=O)c2ccc(-c3ccccc3Cl)cc2)O[C@@](OCCCSCCNC(=O)c2ccc(C(=O)NCCSCCCO[C@]3(C(=O)[O-])C[C@H](O)[C@@H](NC(C)=O)[C@H]([C@H](O)[C@H](O)CNC(=O)c4ccc(-c5ccccc5Cl)cc4)O3)cc2)(C(=O)[O-])C[C@@H]1O.[Na+].[Na+] [Compound 75] has a reported rIP of 3210

CC(=O)N[C@H]1[C@H]([C@H](O)[C@H](O)CNC(=O)c2ccc(C(F)(F)F)cc2)O[C@@](OCCCSCCNC(=O)c2ccc(C(=O)NCCSCCCO[C@]3(C(=O)[O-])C[C@H](O)[C@@H](NC(C)=O)[C@H]([C@H](O)[C@H](O)CNC(=O)c4ccc(C(F)(F)F)cc4)O3)cc2)(C(=O)[O-])C[C@@H]1O.[Na+].[Na+] [Compound 71] has a reported rIP of 32

CC(=O)N[C@H]1[C@H]([C@H](O)[C@H](O)CNS(=O)(=O)c2ccc(-c3ccccc3)cc2)O[C@@](OCCCSCCNC(=O)c2ccc(C(=O)NCCSCCCO[C@]3(C(=O)[O-])C[C@H](O)[C@@H](NC(C)=O)[C@H]([C@H](O)[C@H](O)CNS(=O)(=O)c4ccc(-c5ccccc5)cc4)O3)cc2)(C(=O)[O-])C[C@@H]1O.[Na+].[Na+] [Compound 84] has a reported rIP of 9

CC(=O)N[C@H]1[C@H]([C@H](O)[C@H](O)CNC(=O)c2ccc(-c3cccs3)s2)O[C@@](OCCCSCCNC(=O)c2ccc(C(=O)NCCSCCCO[C@]3(C(=O)[O-])C[C@H](O)[C@@H](NC(C)=O)[C@H]([C@H](O)[C@H](O)CNC(=O)c4ccc(-c5cccs5)s4)O3)cc2)(C(=O)[O-])C[C@@H]1O.[Na+].[Na+] [Compound 62] has a reported rIP of 203

CC(=O)N[C@H]1[C@H]([C@H](O)[C@H](O)CNC(=O)c2ccc(C3CCCCC3)cc2)O[C@@](OCCCSCCNC(=O)CCCCC(=O)NCCSCCCO[C@]2(C(=O)[O-])C[C@H](O)[C@@H](NC(C)=O)[C@H]([C@H](O)[C@H](O)CNC(=O)c3ccc(C4CCCCC4)cc3)O2)(C(=O)[O-])C[C@@H]1O.[Na+].[Na+] [Compound 58] has a reported rIP of 24
